- Target entity: HIV RT-associated RNase H (Human immunodeficiency virus type 1 group M subtype B, UniProt P04585)
- Type: biochemical, HIV-1
- Test parameters: RNH IC50 HTS-2, HTS-2 substrate, measures DNA 3' end directed cleavage
Please respond with reported IC50 for every item in the list.

## Input Endpoint output: IC50 of CC(c1ccc(F)cc1)n1cc(O)c(=O)c(C(=O)O)c1 (stereo not shown) [10e] . Value?
## Output > 25 µM

## Input Endpoint output: IC50 of Cc1cc(Cn2cc(O)c(=O)c(C(=O)O)c2)ccc1F [10f] . Value?
## Output > 25 µM

## Input Endpoint output: IC50 of O=C(O)c1cn(Cc2ccncc2)cc(O)c1=O [10n] . Value?
## Output > 25 µM

## Input Endpoint output: IC50 of O=C(O)c1cn(Cc2ccc(Cl)cc2Cl)cc(O)c1=O [10j] . Value?
## Output > 25 µM

## Input Endpoint output: IC50 of O=C(O)c1cn(Cc2ccc(Br)cc2)cc(O)c1=O [10l] . Value?
## Output > 25 µM

## Input Endpoint output: IC50 of O=C(O)c1cn(Cc2ccc(F)c(Cl)c2)cc(O)c1=O [10k] . Value?
## Output > 25 µM

## Input Endpoint output: IC50 of O=C(O)c1cn(Cc2ccc(F)cc2F)cc(O)c1=O [10g] . Value?
## Output > 25 µM

## Input Endpoint output: IC50 of O=C(O)c1cn(Cc2ccc(Cl)c(Cl)c2)cc(O)c1=O [10i] . Value?
## Output > 25 µM

## Input Endpoint output: IC50 of CCOC(=O)c1cn(Cc2ccc(F)cc2)cc(O)c1=O . Value?
## Output > 25 µM

## Input Endpoint output: IC50 of CS(=O)(=O)c1ccc(Cn2cc(O)c(=O)c(C(=O)O)c2)cc1 [10o] . Value?
## Output > 25 µM

* * *

- Target entity: HIV RT-associated RNase H (Human immunodeficiency virus type 1 group M subtype B, UniProt P04585)
- Format: biochemical, HIV-1
- Test parameters: RNH IC50 HTS-3, HTS-3 substrate, measures RNA 5' end directed cleavage
pIC50: −log10 of the molar value.
Readout type: pIC50

## Input Endpoint output: pIC50 of CS(=O)(=O)c1ccc(Cn2cc(O)c(=O)c(C(=O)O)c2)cc1 [10o] . Value?
## Output < 4.60

## Input Endpoint output: pIC50 of O=C(O)c1cn(Cc2ccccc2)cc(O)c1=O [10c] . Value?
## Output < 4.60

## Input Endpoint output: pIC50 of CC(c1ccc(F)cc1)n1cc(O)c(=O)c(C(=O)O)c1 (stereo not shown) [10e] . Value?
## Output < 4.60

## Input Endpoint output: pIC50 of O=C(O)c1cn(Cc2ccc(F)cc2)cc(O)c1=O [10d] . Value?
## Output < 4.60

## Input Endpoint output: pIC50 of O=C(O)c1cn(Cc2ccc(Cl)cc2Cl)cc(O)c1=O [10j] . Value?
## Output < 4.60

## Input Endpoint output: pIC50 of Cc1cc(Cn2cc(O)c(=O)c(C(=O)O)c2)ccc1F [10f] . Value?
## Output < 4.60

## Input Endpoint output: pIC50 of O=C(O)c1cn(Cc2ccc(Br)cc2)cc(O)c1=O [10l] . Value?
## Output < 4.60

## Input Endpoint output: pIC50 of NC(=O)c1cn(Cc2ccc(F)cc2)cc(O)c1=O . Value?
## Output < 4.60

## Input Endpoint output: pIC50 of O=C(O)c1cn(Cc2ccc(F)c(Cl)c2)cc(O)c1=O [10k] . Value?
## Output < 4.60

## Input Endpoint output: pIC50 of O=C(O)c1cn(Cc2ccncc2)cc(O)c1=O [10n] . Value?
## Output < 4.60

## Input Endpoint output: pIC50 of O=C(O)c1c[nH]cc(O)c1=O [10a] . Value?
## Output < 4.60

## Input Endpoint output: pIC50 of O=C(O)c1cn(Cc2ccc(F)cc2F)cc(O)c1=O [10g] . Value?
## Output < 4.60

## Input Endpoint output: pIC50 of O=C(O)c1cn(Cc2ccc(Cl)c(Cl)c2)cc(O)c1=O [10i] . Value?
## Output < 4.60

## Input Endpoint output: pIC50 of CCOC(=O)c1cn(Cc2ccc(F)cc2)cc(O)c1=O . Value?
## Output < 4.60

## Input Endpoint output: pIC50 of O=C(O)c1ccc(Cn2cc(O)c(=O)c(C(=O)O)c2)cc1 [10p] . Value?
## Output < 4.60

## Input Endpoint output: pIC50 of O=C(O)c1cn(-c2ccccc2)cc(O)c1=O [10b] . Value?
## Output < 4.60
